# credit: PubChem BioAssay (NCI)

Test system: HOP-92 NSCLC
EXPERIMENTAL PROTOCOL: NCI tumour cell line growth inhibition, 48 h
REPORTED ENDPOINT: TGI (µM)
Answers are plain numbers, in µM.

Here are 5 compounds. What values of TGI were reported for them?
1. CC(=O)[O][Hg][c]1c(C)c(C)c(C)c(C)c1C
2. NC(N)=N/N=C/c1c(Cl)nc2sccn12
3. Clc1ccc2c(NCCCCN=Cc3ccccc3)ccnc2c1
4. NCCCCn1c2c(c3ccccc3c1=O)C(=O)c1ccccc1-2
5. COc1ccc(/C(=N/Nc2ccc([N+](=O)[O-])cc2)Sc2cc(Cl)c(C)cc2S(N)(=O)=O)cc1

1. 3.12
2. 70.6
3. 26.3
4. 0.535
5. 8.01

====

Tested on: HCT-15 colon
EXPERIMENTAL PROTOCOL: NCI tumour cell line growth inhibition, 48 h
REPORTED ENDPOINT: TGI (µM)
Give bare numbers, in µM.

COMPOUND: CC(C)CCN=c1cc2n(-c3ccc(Cl)cc3)c3ccccc3nc-2cc1Nc1ccc(Cl)cc1
UNITS LABEL: µM
TGI: 23.2

Moving on to another compound below.
// returns reported TGI for input COc1cc([C@@H]2c3cc4c(cc3C(O[C@@H]3O[C@@H]5CO[C@@H](c6cccs6)OC5[C@H](O)[C@H]3O)C3COC(=O)[C@@H]32)OCO4)cc(OC)c1O (stereo not given in full) 19.4

====

I'd be grateful if you could share measured log10(TGI) for these entries.
Test system: SF-539 CNS
EXPERIMENTAL PROTOCOL: NCI tumour cell line growth inhibition, 48 h
Remember, log10 of TGI, in µM.

Some solved entries appear below for comparison.
COMPOUND: Cn1cc(C2=C(c3cn(C)c4c(N)cccc34)C(=O)NC2=O)c2ccccc21
log10(TGI): 0.30
--
COMPOUND: COc1ccc(S(=O)(=O)N(Cc2ccc3c(n2)C=CC(C)(C)O3)C2CCC2)cc1OC
log10(TGI): -0.42
--
COMPOUND: CCOC(=O)C(=C(SC)SC)c1nn2c(=O)cc(C)nc2s1
log10(TGI): 1.51
--
COMPOUND: O=P(c1ccccc1)(c1ccccc1)C(NCc1ccccc1)c1ccc(F)cc1 (stereo not drawn)
log10(TGI): 1.56
--
COMPOUND: CN1CCC(OC(=O)Oc2ccccc2)(c2ccccc2)CC1
log10(TGI): 1.42

Here are 4 compounds. What values of log10(TGI) were reported for them?
1. Cc1cc(C)cc(Nc2nnc3n2S(=O)(=O)c2cc(C#N)c(Cl)cc2S3)c1
2. CC[C@@H]1/C=C/C=C/C[C@H](C)[C@@H](O)[C@](C)(O)C(=O)[C@H](C)[C@@H](O)[C@H](C)C(=O)[C@H](C)[C@@H](O)[C@H](C)/C=C/C(=O)O[C@H]2[C@@H](C)[C@@H](CC1)O[C@]1(O[C@H](CC(C)O)[C@H](C)CC1=O)[C@@H]2C (stereo partly drawn)
3. Cc1cccc2c(N)c3cccc(C(=O)NCCCNCCN)c3nc12
4. CN(CCCNc1ccc2ncn3c4ccccc4c(=O)c1c23)CCCN1C(=O)c2cccc3cc([N+](=O)[O-])cc(c23)C1=O

1: 0.60; 2: 0.94; 3: 1.00; 4: -0.83

====

I'd be grateful if you could share measured TGI for these entries.
System: U251 CNS
EXPERIMENTAL PROTOCOL: NCI tumour cell line growth inhibition, 48 h

Some solved entries appear below for comparison.
MOLECULE: CCC(C)(O)c1cn(-c2cccc(S(=O)(=O)O)c2)nn1 (configuration not stated)
TARGET ENTITY: U251 CNS
TGI: > 100 µM

MOLECULE: COc1cc(C2c3cc4c(cc3[C@@H](Nc3ccccc3)C3CO[C@@H](OC)[C@H]23)OCO4)cc(OC)c1O (some centres not stated)
TARGET ENTITY: U251 CNS
TGI: > 25 µM

MOLECULE: O=C(NC1CCCCCC1)C1C(=O)N(C2CCCCCC2)C(=O)/C1=N\O (configuration not stated)
TARGET ENTITY: U251 CNS
TGI: 34.9 µM

MOLECULE: CCCCC/C=C/C/C=C/CCCCCCCC1=NC(C)(C)CN1C(C)C
TARGET ENTITY: U251 CNS
TGI: 2.87 µM

MOLECULE: O=C(Nc1ccc2nc(-c3ccccc3)cn2c1)Oc1ccccc1
TARGET ENTITY: U251 CNS
TGI: > 100 µM

Here are 4 molecules. What values of TGI were reported for them?
1. COc1ccc(-c2c(C(C)=O)c(-c3ccccc3)n(C3OC(COC(C)=O)C(OC(C)=O)C(OC(C)=O)C3OC(C)=O)c(=S)c2C#N)cc1 (configuration not stated)
2. COc1cc(C2c3cc4c(cc3[C@H](OCCN(C)C)[C@@H]3COC(=O)C23)OCO4)cc(OC)c1O (some centres not stated)
3. Cc1ccc(N=NC(C(=O)c2ccccc2)C(=O)c2ccccc2)cc1
4. Clc1cccc(Cl)c1C1SCC2=Nc3ccccc3CN21 (configuration not stated)

1. > 100 µM
2. 0.898 µM
3. > 100 µM
4. > 100 µM

Here are 2 molecules. What values of TGI were reported for them?
1. COC(=O)C(=O)C(C(=O)C=C(C)C)C(=O)C(=O)Nc1ccc(Cl)cc1C (configuration not stated)
2. Cc1nc(N)c(N2CCNCC2)c(=O)[nH]1

> 100 µM
> 100 µM

====

System: SNB-75 CNS
EXPERIMENTAL PROTOCOL: NCI tumour cell line growth inhibition, 48 h
REPORTED ENDPOINT: TGI (µM)
Give bare numbers, in µM.

TEST SMILES: COc1cc(Cc2cc(OC)c(OC)c(OC)c2)ccc1O
DATA VALUE: 28.6

// returns reported TGI for input "COc1cc2c3c(n(CCCBr)c(=O)c2cc1OC)-c1ccc(NC(C)=O)cc1C3=O" 54

====

System: SK-MEL-28 melanoma
EXPERIMENTAL PROTOCOL: NCI tumour cell line growth inhibition, 48 h
I'd be grateful if you could share measured GI50 for these entries.

Some solved entries appear below for comparison.
COMPOUND: Cc1[nH]c(N=Nc2ccccc2)nc1N=Nc1ccccc1
GI50: 4.5 µM
--
COMPOUND: COc1cc(C(=O)O[C@H](C(N)=O)[C@]2(C)CO2)c2ccccc2c1
GI50: 15.6 µM
--
COMPOUND: C[C@]12CC[C@@H]3c4ccc(O)cc4CC[C@H]3[C@@H]1CC[C@@H]2NS(=O)(=O)c1ccc(C(F)(F)F)cc1
GI50: 1.68 µM
--
COMPOUND: Cc1cc(C)cc(Nc2cc(C)nc3nc(C(F)(F)F)nn23)c1
GI50: > 100 µM
--
COMPOUND: CCCCNC(=O)NS(=O)(=O)c1ccc(N2N=C(c3ccc(C)cc3C)CC2c2ccc(N(C)C)cc2)cc1 (stereo not given)
GI50: 2.56 µM

Here are 5 compounds. What values of GI50 were reported for them?
1. CC(C)CSc1nc(Nc2ccccc2)c(C#N)c(-c2ccc(F)cc2)n1
2. COc1cc(Cn2c(-c3ccccc3)cc3c2-c2oncc2CC3)cc(OC)c1OC
3. CCCCC/C=C/C/C=C/CCCCCCCC1=NC(C)(C)CN1C(C)C
4. COc1ccc(C(=O)/C=C/c2cccnc2Nc2cc(OC)c(OC)c(OC)c2)cc1
5. Cn1cc(-c2csc(-c3cccc(F)c3)n2)c2cccnc21

1: 12.2 µM; 2: 1.14 µM; 3: 1.7 µM; 4: 2.7 µM; 5: 17.6 µM

====

I'd be grateful if you could share measured TGI for these entries.
Tested on: MOLT-4 leukemia
EXPERIMENTAL PROTOCOL: NCI tumour cell line growth inhibition, 48 h

COMPOUND: CC(=O)OC[C@]12CC[C@H]3[C@@H](C[C@H]4O[C@]45CC=CC(=O)[C@]35C)[C@]1(O)CC[C@@]2(O)[C@@](C)(O)C1CC(C)=C(C)C(=O)O1 (some centres undefined)
TARGET ENTITY: MOLT-4 leukemia
DATA VALUE: > 36.2 µM
--
COMPOUND: COc1ccc(-n2cc(-c3cc(OC)c(OC)c(OC)c3)[nH]c2=S)cc1OC
TARGET ENTITY: MOLT-4 leukemia
DATA VALUE: > 100 µM
--
COMPOUND: N#CCCN(c1ccc(/C=C2\N=C(c3ccc(Cl)cc3)OC2=O)cc1)S(=O)(=O)c1ccccc1
TARGET ENTITY: MOLT-4 leukemia
DATA VALUE: > 100 µM
--
COMPOUND: Cn1c(=O)c2c(nc(NCCCCl)n2CC(=O)NCCCCl)n(C)c1=O
TARGET ENTITY: MOLT-4 leukemia
DATA VALUE: > 100 µM

Here are 5 compounds. What values of TGI were reported for them?
1. COC(=O)[C@]12CCC(C)(C)C[C@H]1C1=CC[C@@H]3[C@@]4(C)C/C(=C/c5cccnc5)C(=O)C(C)(C)[C@@H]4CC[C@@]3(C)[C@]1(C)CC2
2. O=C(/C=C/c1ccccc1Cl)c1ccccc1Cl
3. COc1ccc(-c2nc(-c3nc4ccc(C)cc4[nH]3)c3ccccn23)cc1
4. NS(=O)(=O)c1nnc(NC(=O)c2ccccc2)s1
5. O=C1NNC(=O)C2C3c4ccccc4C(c4ccccc43)C12 (centres undefined)

6.17 µM
60 µM
7.99 µM
> 100 µM
> 100 µM
